assay.name: Cytotoxicity against human Calu-3 cells assessed as reduction in cell viability incubated for 72 hrs by methylene blue assay
Type: toxicity, cell-based
quantity.measured: CC50 at 72 h

Input: For the molecule shown here, `COc1ccc(/C=C2\Oc3cc(OC)ccc3C2=O)cc1` , give the reported CC50 at 72 h.
Output: > 300 µM

Input: CC50 at 72 h for `COCOc1ccc2c(c1)O/C(=C\c1ccc(OC)c(OCOC)c1)C2=O` ?
Output: 817 µM

---

Test system: SARS-CoV-2
assay.name: Antiviral activity against SARS-CoV-2 B.1 lineage isolate infected in human Calu-3 cells assessed as inhibition of viral replication at 10 uM infected with cells for 1 hr followed by compound addition and measured 24 hrs post infection by crystal violet staining based PFU assay relative to control
Type: functional
recorded.conditions: Severe acute respiratory syndrome coronavirus 2, B.1, Calu-3
quantity.measured: inhibition at 10 µM (%)
API: value field is a number in %; no unit string.

Input: For the compound shown here, `COc1ccc(/C=C2\Oc3ccccc3C2=O)cc1` , give the reported inhibition at 10 µM.
Output: 66.9

Input: Return reported inhibition at 10 µM; argument: `COc1ccc(/C=C2\Oc3cc(O)ccc3C2=O)cc1`
Output: 24

Input: I'd like to know its inhibition at 10 µM. The compound in question is `COCOc1cc(OCOC)c2c(c1)O/C(=C\c1ccc(OC)cc1)C2=O`
Output: 95.2

---
Input: What value of inhibition at 10 µM has been reported for the following compound? `COCOc1cc(/C=C2\Oc3cc(OC)ccc3C2=O)ccc1OC`
Output: 88.2

Input: Give the measured inhibition at 10 µM of `COCOc1ccc2c(c1)O/C(=C\c1ccc(OC)cc1)C2=O` .
Output: 98

Input: // returns reported inhibition at 10 µM for input `COc1ccc(/C=C2\Oc3cc(OCc4ccc(F)cc4)ccc3C2=O)cc1`
Output: 85.2

Input: So what does the record say about inhibition at 10 µM for `COc1ccc(/C=C2\Oc3cc(O)ccc3C2=O)cc1O` ?
Output: 24.4
